Target: Tubulin (Homo sapiens) (UniProt P68371+Q9H4B7+P0DPH7+P68366+Q13509+Q71U36+P04350+Q3ZCM7+P07437+P68363+Q9BQE3+Q6PEY2+Q13885+Q9BVA1+Q9BUF5)
Assay: Stabilization of microtubules in human QBI293 cells assessed as increase in acetylated tubulin levels after 4 hrs by ELISA
Type: cell-based
Measured Parameter: Activity

Enquiry: Consider the compound `Fc1cc(F)c(-c2c(Cl)nc3ncnn3c2N2CCC2)c(F)c1` and give its measured Activity.
Return: Dose-dependent effect

Enquiry: I am curious: what Activity value has been reported for `CO[C@H]1C[C@H]2CC[C@@H](C1)N2c1c(-c2c(F)cc(F)cc2F)c(Cl)nc2ncnn12` ?
Return: Dose-dependent effect

Enquiry: # get_value(readout='Activity', item= `C[C@H](Nc1c(-c2ccc(F)c(F)c2F)c(Cl)nc2ncnn12)C(F)(F)F` )
Return: Dose-dependent effect

Enquiry: So what's the measured Activity for this one? `C[C@H](Nc1c(-c2ccccc2F)c(Cl)nc2ncnn12)C(F)(F)F`
Return: Dose-dependent effect

Enquiry: What value of Activity has been recorded for this entry: `Fc1cc(F)c(-c2c(Cl)nc3ncnn3c2NC2CCCCC2)c(F)c1`
Return: Dose-dependent effect

Enquiry: May I ask what Activity has been recorded for `CC(C)Nc1c(-c2c(F)cc(F)cc2F)c(Cl)nc2ncnn12` ?
Return: Dose-dependent effect

Take each entry in turn and give its Activity.
1. Fc1cc(F)c(-c2c(Cl)nc3ncnn3c2N2CCCCC2)c(F)c1
2. C[C@H](Nc1c(-c2c(F)cccc2F)c(Cl)nc2ncnn12)C(F)(F)F

Return:
["Dose-dependent effect", "Dose-dependent effect"]
